Entries annotated with measured EC50
target: KLH (Keyhole Limpet Hemocyanin) (keyhole limpet); assay: ELISA on KLH

binder | EC50 / nM
NGS602-OLIGO_42 (VHH) VHH: QVQLVESGGGLVQAGGSLRLSCLFSGTFGIYGMGWFRQAPGKAREFVAGVSRHGLTTQYADSVKGRFTISRDNAKNTMYLQMNSLKPEDTADYYCARSRLSASLLVTASDYDYWGQGTQVTVSS | 0.342
NGS602-OLIGO_266 (VHH) VHH: QVQLVESGGGLVQAGGSLRLSCAASGRTFFTYPMGWFRQAPGKERQFVAAISGNGDSIDYADSVKGRFTISRDNAKNTLYLQMNSLKPEDAALYYCNAVITHDYTRPLFASWGQGTQVTVSS | 0.195
NGS602-OLIGO_149 (VHH) VHH: QVQLVESGGGLVQAGDSLRLSCAASGRTFSSYAMAWFRRPPGKAREFVALIRWSNGRTAVVDSVKGRFTASRDNAKNTGYLQMDSLKSEDTAVYYCAACDQALDPPRCNDWGQGTQVTVSS | 0.147
NGS602-OLIGO_205 (VHH) VHH: RVQLVESGGGLVQPGGSLRLSCTASGLPLNTAAMSWYRQTPGKERELVASISITGDSTTYADSVKGRFTISRDNVKNIVYLQMDILKPEDTAVYYCTRAPWDYKYWGQGTQVTVSS | 1.16

Measured values drawn from patent US20230002757A1 for this set.
